Data provenance: BindingDB's records for doi:10.7270/Q2NC5ZRN

- ASSAY TARGET: DNA (cytosine-5)-methyltransferase 1 (Homo sapiens, UniProt P26358)
- Sequence (P26358 whole entry): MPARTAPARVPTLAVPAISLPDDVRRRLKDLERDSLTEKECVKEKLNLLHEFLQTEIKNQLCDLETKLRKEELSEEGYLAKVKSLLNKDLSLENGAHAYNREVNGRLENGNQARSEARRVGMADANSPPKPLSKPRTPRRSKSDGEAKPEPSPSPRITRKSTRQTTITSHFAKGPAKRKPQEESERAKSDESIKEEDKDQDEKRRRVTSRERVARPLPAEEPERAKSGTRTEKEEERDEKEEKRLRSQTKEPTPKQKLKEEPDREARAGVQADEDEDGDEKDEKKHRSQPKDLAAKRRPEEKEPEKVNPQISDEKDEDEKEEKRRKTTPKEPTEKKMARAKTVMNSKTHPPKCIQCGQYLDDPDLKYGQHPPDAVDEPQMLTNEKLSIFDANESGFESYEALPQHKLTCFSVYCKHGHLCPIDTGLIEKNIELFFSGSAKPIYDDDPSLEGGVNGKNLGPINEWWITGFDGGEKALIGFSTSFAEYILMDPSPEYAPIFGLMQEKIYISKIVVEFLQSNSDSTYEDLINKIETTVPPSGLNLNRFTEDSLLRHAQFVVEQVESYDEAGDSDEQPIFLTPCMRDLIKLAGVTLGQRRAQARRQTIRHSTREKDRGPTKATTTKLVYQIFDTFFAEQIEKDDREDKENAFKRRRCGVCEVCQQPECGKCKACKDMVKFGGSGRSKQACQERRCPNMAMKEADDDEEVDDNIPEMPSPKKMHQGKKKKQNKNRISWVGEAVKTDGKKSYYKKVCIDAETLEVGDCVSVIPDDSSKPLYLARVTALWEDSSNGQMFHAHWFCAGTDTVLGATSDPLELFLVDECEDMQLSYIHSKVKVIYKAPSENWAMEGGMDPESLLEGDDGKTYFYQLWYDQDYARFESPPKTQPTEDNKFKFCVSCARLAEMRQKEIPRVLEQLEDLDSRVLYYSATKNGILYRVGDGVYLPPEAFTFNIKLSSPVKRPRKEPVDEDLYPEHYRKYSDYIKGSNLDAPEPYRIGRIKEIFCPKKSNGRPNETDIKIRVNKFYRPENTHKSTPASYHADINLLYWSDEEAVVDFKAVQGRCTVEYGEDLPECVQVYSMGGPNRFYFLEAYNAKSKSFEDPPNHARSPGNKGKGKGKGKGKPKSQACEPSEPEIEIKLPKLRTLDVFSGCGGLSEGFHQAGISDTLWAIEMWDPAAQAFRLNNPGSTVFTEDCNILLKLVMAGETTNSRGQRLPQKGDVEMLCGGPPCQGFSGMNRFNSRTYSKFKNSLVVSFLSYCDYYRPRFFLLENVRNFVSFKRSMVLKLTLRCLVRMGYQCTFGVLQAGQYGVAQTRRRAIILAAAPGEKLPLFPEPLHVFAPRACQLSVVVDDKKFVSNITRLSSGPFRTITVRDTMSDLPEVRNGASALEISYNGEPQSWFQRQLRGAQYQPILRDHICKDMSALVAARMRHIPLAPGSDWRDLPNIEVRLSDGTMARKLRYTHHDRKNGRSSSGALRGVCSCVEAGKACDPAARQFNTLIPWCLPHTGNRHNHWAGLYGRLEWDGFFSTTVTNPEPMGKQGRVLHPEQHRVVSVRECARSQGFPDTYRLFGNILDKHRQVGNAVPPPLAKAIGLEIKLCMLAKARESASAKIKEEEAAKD
- TEST NAME: DNMT1 methyltransferase inhibitors, confirmation, biochemical, fluorescent molecular beacon (AID 602386)
MEASURED ATTRIBUTE: IC50 (µM)
Answers are plain numbers, in µM.

Cc1[nH]n(-c2ccccc2)c(=O)c1C=C1NC(=S)NC1=O = 8.39
COc1cc(NS(=O)(=O)c2ccc(NC(=S)NC(=O)c3sc4ccccc4c3Cl)cc2)nc(OC)n1 = 41
COc1ccc(C=c2c(=CSc3ccc(Cl)cc3)[nH]n(-c3nc4ccccc4s3)c2=O)cc1 = 2.86

Batch request: IC50 per item, same order as input.
1. NS(=O)(=O)c1ccc(NN=C2C=CC(=O)NC2=O)cc1
2. C=CCOc1ccc(CN=Nc2ccc(S(=O)(=O)Nc3ccccc3C(=O)O)cc2[N+](=O)[O-])cc1OC
3. O=C(CSc1nc(O)cc(=O)[nH]1)Nc1ccccc1[N+](=O)[O-]
4. O=C1N=c2ccccc2=C1NNc1ccc(F)cc1
5. CCCCn1c(NC(=S)Nc2ccccc2)nc2ccccc21

Result:
[7.65, 5.32, 8.51, 19.3, 1.02]

Batch request: IC50 per item, same order as input.
1. O=C(/C=C/c1ccco1)NCC(=O)NNC1=c2ccccc2=NC1=O
2. CCOc1ccc(CN=Nc2ccc(S(=O)(=O)Nc3ccccc3C(=O)O)cc2[N+](=O)[O-])cc1
3. CC=CC=CC(=O)C1C(=O)[C@]2(C)C(=O)C(C)(O)[C@H]1[C@H]([C@]1(C)OC(=O)C(C)C1=O)[C@H]2C(=O)C=CC=CC (some centres undefined)

Result:
1. 3.25
2. 5.78
3. 5.25

* * *

- ASSAY TARGET: UniProt P26358
- TEST NAME: DNMT1 methyltransferase inhibitors, confirmation, biochemical, fluorescent molecular beacon (AID 602386)
MEASURED ATTRIBUTE: pIC50
Give bare numbers, as −log10 of the molar value.

Field: example entries. Status: answers known.
COc1ccc(OC)c(-n2c(O)c3o[nH]c(-c4ccccc4Cl)c-3c2=O)c1 = 5.36
C=c1[nH]n(-c2cccc(C(=O)O)c2)c(=O)c1=CC=Cc1ccco1 = 5.93
NC(=NNC=c1ccc(=C2C=CC(=O)C(C(=O)O)=C2)o1)N[N+](=O)[O-] = 5.40
CCOC1=CC(=Cc2c(-c3ccccc3)[nH]n(-c3nc(-c4ccc(Br)cc4)cs3)c2=O)C=CC1=O = 5.36

In the following, a different compound is considered.
Lookup result for CSc1ccc(CN=Nc2ccc(S(=O)(=O)Nc3ccccc3C(=O)O)cc2[N+](=O)[O-])cc1 ; measured pIC50: 5.49

* * *

- ASSAY TARGET: DNA (cytosine-5)-methyltransferase 1 (Homo sapiens, UniProt P26358)
- TEST NAME: DNMT1 methyltransferase inhibitors, confirmation, biochemical, fluorescent molecular beacon (AID 602386)
MEASURED ATTRIBUTE: IC50

Field: example entries. Status: answers known.
COc1ccccc1N1CC=[N+](N[CH-]c2ccc(Cl)c([N+](=O)[O-])c2)CC1 = > 99 µM
CCN(CC)CCOc1ccc2c(c1)C(N=O)c1cc(OCCN(CC)CC)ccc1-2 = > 99 µM

In the following, a different compound is considered.
Lookup result for Cc1ccc(C(=O)N[n+]2cc(O)[c-](-c3nc(-c4cccc([N+](=O)[O-])c4)cs3)c2N)cc1 ; measured IC50: > 99 µM
